# tested target: Growth hormone-releasing hormone receptor (Rattus norvegicus) (UniProt Q02644)
# Sequence (Q02644 whole entry): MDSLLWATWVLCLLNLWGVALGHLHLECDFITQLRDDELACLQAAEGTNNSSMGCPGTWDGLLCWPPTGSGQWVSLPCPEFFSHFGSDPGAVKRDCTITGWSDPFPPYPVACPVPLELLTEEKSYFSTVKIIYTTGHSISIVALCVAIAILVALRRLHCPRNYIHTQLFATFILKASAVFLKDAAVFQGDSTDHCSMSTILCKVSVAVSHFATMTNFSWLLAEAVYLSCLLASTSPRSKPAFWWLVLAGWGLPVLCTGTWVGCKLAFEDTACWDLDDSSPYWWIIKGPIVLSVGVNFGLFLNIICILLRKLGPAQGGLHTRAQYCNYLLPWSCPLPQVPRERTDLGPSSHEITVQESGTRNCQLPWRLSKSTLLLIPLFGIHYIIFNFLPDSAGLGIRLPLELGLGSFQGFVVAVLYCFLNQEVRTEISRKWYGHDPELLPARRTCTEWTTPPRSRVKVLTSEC
# test method notes: Tested for the potency of growth hormone (GRF) on subcutaneous administration in anesthetized male Charles River rats
# Format: functional, organism-based
As shown below, each of these substances has a reported Potency value.
Answer in %, number only, no unit symbol.

What value of Potency has been reported for the following substance? H-YADAIFTNSYRKVLGQLSARKLLQDILSR-NH2
57

Then there is this substance:
What value of Potency has been reported for the following substance? Ac-YADAIFTNSYRKVLGQLSARKLLQDIL-NH2
54
